experiment: Plasma protein binding in rat assessed as unbound fraction at 5 uM incubated for 6 hrs by equilibrium dialysis based HPLC analysis; format: ADME, cell-free
Experimental readout: fraction unbound at 6 h, 5 µM
Respond numerically, and do not add a unit to the figure.

Consider the reported fraction unbound at 6 h, 5 µM for these molecules:
Query smiles	fraction unbound at 6 h, 5 µM
COc1cc2nc(C)[nH]c(=O)c2cc1S(=O)(=O)Nc1ccc(N2C[C@H](C)C[C@@H](C)C2)nc1	0.008
Cc1nc2cc(OCCN3CCOCC3)c(S(=O)(=O)Nc3ccc(N4C[C@H](C)C[C@@H](C)C4)nc3)cc2c(=O)[nH]1	0.037

Now consider a different molecule.
Req: Look up fraction unbound at 6 h, 5 µM for this molecule: "CNc1cc2nc(C)[nH]c(=O)c2cc1S(=O)(=O)Nc1ccc(N2C[C@H](C)C[C@@H](C)C2)nc1"
Resp: 0.012

====

# key: entry, value: EC40
species: Bos taurus; experiment: Activation of full-length myosin ATPase activity in bovine Cardiomyofibril in presence of CaCl2 and ATP by HTS assay; assay type: tissue-based; settings: filed as activator
Hi, when you answer, please include the unit after the number. Thanks!

Query smiles	Experimental readout	Data value
O=c1[nH]c(=O)c2cc(S(=O)(=O)Nc3ccc(N4CCCCCC4)cc3)ccc2[nH]1	EC40	1.1 µM
C[C@@H]1C[C@H](C)CN(c2ccc(NS(=O)(=O)c3ccc4c(c3)c(=O)[nH]c(=O)n4C)cn2)C1	EC40	11.1 µM
Cc1nc2cc(OCCN3CCOCC3)c(S(=O)(=O)Nc3ccc(N4C[C@H](C)C[C@@H](C)C4)nc3)cc2c(=O)[nH]1	EC40	0.7 µM

Now consider a different compound.
Req: Look up EC40 for this compound: "O=c1[nH]c(=O)c2cc(S(=O)(=O)Nc3ccc(-c4ccccc4)cn3)ccc2[nH]1"
Resp: 18 µM

====

species on record: Bos taurus; experiment: Activation of full-length myosin ATPase activity in bovine Cardiomyofibril in presence of CaCl2 and ATP by HTS assay; format: tissue-based; details: filed as activator
# key: entry, value: EC40
Return type: number; implicit unit µM.

Query smiles	EC40 (µM)
C[C@H]1C[C@H](C)CN(c2ccc(NS(=O)(=O)c3ccc4c(c3)c(=O)[nH]c(=O)n4C)cn2)C1	21.9
O=c1[nH]c2ccc(S(=O)(=O)Nc3ccc(-c4ccccc4)cc3)cc2[nH]1	5.5
C[C@@H]1CCCN(c2ccc(NS(=O)(=O)c3ccc4c(c3)c(=O)[nH]c(=O)n4C)cn2)C1	4.3

Now consider a different molecule.
Req: Look up EC40 for this molecule: "C[C@@H]1C[C@@H](C)CN(c2ccc(NS(=O)(=O)c3ccc4c(c3)c(=O)[nH]c(=O)n4C)cn2)C1"
Resp: 0.5

====

species: Bos taurus; assay: Activation of full-length myosin ATPase activity in bovine Cardiomyofibril in presence of CaCl2 and ATP by HTS assay; type: tissue-based; settings: filed as activator
Experimental readout: EC40 (µM)
Return type: number; implicit unit µM.

Consider the reported EC40 for these molecules:
Query smiles	EC40 (µM)
O=c1[nH]c(=O)c2cc(S(=O)(=O)Nc3ccc(-c4ccccc4)nc3)ccc2[nH]1	5.3
COc1cc2nc(C)[nH]c(=O)c2cc1S(=O)(=O)Nc1ccc(N2C[C@H](C)C[C@@H](C)C2)nc1	0.7
Cc1nc2ccc(S(=O)(=O)Nc3ccc(N4C[C@H](C)C[C@@H](C)C4)nc3)cc2c(=O)[nH]1	4.5

Now consider a different molecule.
Req: Look up EC40 for this molecule: "CNc1cc2nc(C)[nH]c(=O)c2cc1S(=O)(=O)Nc1ccc(N2C[C@H](C)C[C@@H](C)C2)nc1"
Resp: 1.4

====

target: cGMP-inhibited 3',5'-cyclic phosphodiesterase 3A (Homo sapiens, UniProt Q14432)
Sequence (Q14432 whole entry): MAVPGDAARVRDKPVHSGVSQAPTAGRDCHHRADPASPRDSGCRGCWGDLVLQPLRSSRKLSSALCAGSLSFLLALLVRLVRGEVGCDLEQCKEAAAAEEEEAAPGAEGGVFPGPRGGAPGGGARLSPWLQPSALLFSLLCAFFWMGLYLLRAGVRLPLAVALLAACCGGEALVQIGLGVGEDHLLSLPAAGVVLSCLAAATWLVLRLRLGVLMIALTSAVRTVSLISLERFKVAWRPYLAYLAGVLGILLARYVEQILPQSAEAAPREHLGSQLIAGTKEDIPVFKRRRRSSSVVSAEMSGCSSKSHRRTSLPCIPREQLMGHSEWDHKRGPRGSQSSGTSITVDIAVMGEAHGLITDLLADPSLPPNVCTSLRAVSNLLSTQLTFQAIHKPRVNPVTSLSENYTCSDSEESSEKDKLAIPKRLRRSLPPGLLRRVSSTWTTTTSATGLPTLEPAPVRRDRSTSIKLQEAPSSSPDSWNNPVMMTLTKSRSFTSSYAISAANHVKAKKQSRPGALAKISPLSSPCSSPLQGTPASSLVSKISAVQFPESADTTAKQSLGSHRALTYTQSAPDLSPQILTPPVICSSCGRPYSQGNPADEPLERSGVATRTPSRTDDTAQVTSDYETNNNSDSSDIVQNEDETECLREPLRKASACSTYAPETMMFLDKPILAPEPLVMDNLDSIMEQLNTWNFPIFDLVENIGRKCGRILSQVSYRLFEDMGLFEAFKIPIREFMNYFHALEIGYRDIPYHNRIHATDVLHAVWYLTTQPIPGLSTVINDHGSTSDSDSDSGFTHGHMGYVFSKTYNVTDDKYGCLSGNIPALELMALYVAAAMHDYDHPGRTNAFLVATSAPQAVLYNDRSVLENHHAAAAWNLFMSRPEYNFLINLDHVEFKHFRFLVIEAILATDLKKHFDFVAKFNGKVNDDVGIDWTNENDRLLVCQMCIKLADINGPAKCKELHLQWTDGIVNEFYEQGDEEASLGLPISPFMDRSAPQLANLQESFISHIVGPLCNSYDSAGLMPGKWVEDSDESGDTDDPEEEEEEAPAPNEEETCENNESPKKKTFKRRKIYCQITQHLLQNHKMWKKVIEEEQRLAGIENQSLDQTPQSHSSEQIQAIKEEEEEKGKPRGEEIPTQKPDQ
Experimental readout: IC50

Req: # get_value(readout= IC50, system= cGMP-inhibited 3',5'-cyclic phosphodiesterase 3A (Homo sapiens, UniProt Q14432)) for "CNc1cc2nc(C)[nH]c(=O)c2cc1S(=O)(=O)Nc1ccc(N2C[C@H](C)C[C@@H](C)C2)nc1"
Resp: > 40 µM
